Data origin, for the record: PubChem BioAssay (NCI)

tested on: OVCAR-3 ovarian; test: NCI tumour cell line growth inhibition, 48 h
EXPERIMENTAL_ENDPOINT: TGI

Req: Would you mind telling me what TGI value was observed for C=CCN1C(=O)CC(=O)N(NC2=NNC3(C(=O)N2)c2ccccc2-c2ccccc23)C1=S ?
Resp: > 100 µM

Req: Would you mind telling me what TGI value was observed for O=C(O)CCC1NC(/C(=C/c2ccccc2O)NC(=O)c2ccccc2)OC1=O (configuration not stated) ?
Resp: > 100 µM

Req: Would you mind telling me what TGI value was observed for CC1=CCN(c2ccccn2)OC1c1ccccc1 (configuration not stated) ?
Resp: > 100 µM

Req: Would you mind telling me what TGI value was observed for COc1cccc(CCCNC(=O)Cc2ccccc2CO)c1 ?
Resp: > 100 µM

Req: Would you mind telling me what TGI value was observed for COc1ccc(/C=N/Nc2nnc3c(n2)c2ccccc2c2nn(-c4ccccc4Cl)nc23)cc1 ?
Resp: > 100 µM

Req: Would you mind telling me what TGI value was observed for Cc1ccc2nc(C(=O)O)c(=O)[nH]c2c1 ?
Resp: > 100 µM

Req: Would you mind telling me what TGI value was observed for O=C(Nc1ccc(C(F)(F)F)cc1[N+](=O)[O-])c1cccnc1 ?
Resp: 7.29 µM

Req: Would you mind telling me what TGI value was observed for CC(=O)[O-].[Mn+3].[O-]c1ccc(Cl)cc1C=NCCN=Cc1cc(Cl)ccc1[O-] ?
Resp: > 100 µM

Req: Would you mind telling me what TGI value was observed for C=C(Cn1c2ccccc2c(=O)c2ccccc21)c1ccc(C(=O)Nc2ccccc2N)cc1 ?
Resp: > 100 µM

Req: Would you mind telling me what TGI value was observed for C/C(=N\NC(=S)N1CCOCC1)c1nc2ncccc2[nH]1 ?
Resp: > 100 µM

Req: Would you mind telling me what TGI value was observed for CN(C)C(=O)Oc1ccc(C(=S)Nc2ccccc2)cc1 ?
Resp: > 100 µM

Req: Would you mind telling me what TGI value was observed for O=CC1=CCC2c3[nH]c4ccccc4c3CCN2C1 (configuration not stated) ?
Resp: 314 µM

Req: Would you mind telling me what TGI value was observed for O=C(c1ccccc1)C(Br)C(Br)c1ccccc1 (configuration not stated) ?
Resp: 3.65 µM

Req: Would you mind telling me what TGI value was observed for CCCCCCCc1ccc(-c2nnc(N=Nc3ccc(OCCCCC)cc3)s2)s1 ?
Resp: > 100 µM

Req: Would you mind telling me what TGI value was observed for Nc1ncnc2c1nc(Cl)n2C1OC(CO)C(O)C1O (configuration not stated) ?
Resp: > 100 µM

Req: Would you mind telling me what TGI value was observed for CCCCCCCCCCCCCCC(C)CCC(=O)O (configuration not stated) ?
Resp: > 100 µM

Req: Would you mind telling me what TGI value was observed for COC(=O)CC1CC2(C(=O)OC)c3[nH]c4ccccc4c3CCN2C1=O (configuration not stated) ?
Resp: > 100 µM

Req: Would you mind telling me what TGI value was observed for C=C1CC/C=C(\C)CC[C@H](C(=C)C)[C@@H](O)/C=C(/CO)CCC1O (some centres not stated) ?
Resp: > 100 µM

Req: Would you mind telling me what TGI value was observed for CC[C@@]12CCC(=S)N(CCSc3ccccc3)[C@@H]1c1c(n(S(=O)(=O)c3ccc(OC)cc3)c3ccccc13)CC2 ?
Resp: > 100 µM

Req: Would you mind telling me what TGI value was observed for CC1CC(C)C(C(O)CC2CC(=O)N(c3ccccc3)C(=O)C2)C(O)C1 (configuration not stated) ?
Resp: > 100 µM

Req: Would you mind telling me what TGI value was observed for COc1cccc(N=NN2CCCC2)c1 ?
Resp: > 100 µM

Req: Would you mind telling me what TGI value was observed for COc1c(O)c2c3c(c1OC)-c1ccccc1CC3N(S(=O)(=O)c1ccc(C)cc1)CC2 (configuration not stated) ?
Resp: 2.68 µM

Req: Would you mind telling me what TGI value was observed for CCCCCCCCCCCCCCCC(=O)OCC1OC(n2cc(F)c(=O)[nH]c2=O)C(NC(=O)N(CCCl)N=O)C(O)C1O (configuration not stated) ?
Resp: 20.9 µM

Req: Would you mind telling me what TGI value was observed for CCCCCCCCCCCCOC1C(C(CC(=O)N2CCN(Cc3ccc4c(c3)OCO4)CC2)NS(=O)(=O)c2cc(Cl)cc(Cl)c2)OC2OC(C)(C)OC21 (configuration not stated) ?
Resp: > 100 µM

Req: Would you mind telling me what TGI value was observed for NC(N)=NCCCC(NC(=O)c1c2ccccc2nc2ccccc12)C(=O)O (configuration not stated) ?
Resp: > 100 µM

Req: Would you mind telling me what TGI value was observed for N/C(=N\C(N)=N\c1nc2ccccc2s1)c1cnccn1 ?
Resp: 7.86 µM

Req: Would you mind telling me what TGI value was observed for COc1cc(OC)cc(-c2ccc(-c3ccc(C(=N)N)cn3)s2)c1 ?
Resp: 3.2 µM

Req: Would you mind telling me what TGI value was observed for COc1ccc(-c2cc(-c3ccccc3)nc(NCCNc3ccnc4cc(Cl)ccc34)n2)cc1 ?
Resp: 3.39 µM

Req: Would you mind telling me what TGI value was observed for N#CC(NNC(=O)c1ccccc1O)c1c(O)ccc2ccccc12 (configuration not stated) ?
Resp: 23.8 µM

Req: Would you mind telling me what TGI value was observed for COc1ccc(N=Nc2c(N)nn3c(SC)c(C#N)c(N)nc23)cc1 ?
Resp: 7.1 µM

Req: Would you mind telling me what TGI value was observed for COc1cc(/C=C2/Oc3c(OC)cccc3C2=O)ccc1O ?
Resp: > 100 µM

Req: Would you mind telling me what TGI value was observed for CCOC(=O)c1cn(CC)c2ccc3c(c2c1=O)S(=O)(=O)C=C3 ?
Resp: > 100 µM

Req: Would you mind telling me what TGI value was observed for CC(C)=CCc1c2c(c(O)c3c(=O)c4c(oc13)-c1ccc(O)cc1OC4C=C(C)C)C=CC(C)(C)O2 (configuration not stated) ?
Resp: 25.2 µM

Req: Would you mind telling me what TGI value was observed for Cc1cc(=O)n2nc(CSc3nnc(Sc4cc(O)ccc4O)s3)sc2n1 ?
Resp: > 100 µM

Req: Would you mind telling me what TGI value was observed for COc1cc2c(cc1OC)C(=O)N(c1ccc(OCCN3CCCC3)cc1)C2=O ?
Resp: > 100 µM

Req: Would you mind telling me what TGI value was observed for Clc1cc2ncn(C3CCCCO3)c2cc1Cl (configuration not stated) ?
Resp: > 100 µM

Req: Would you mind telling me what TGI value was observed for CC(NNC(=O)c1ccncc1)c1ccc(Cl)cc1Cl (configuration not stated) ?
Resp: > 100 µM

Req: Would you mind telling me what TGI value was observed for CCOc1ccccc1NC(=O)C1=C(C)NC(C)=C(C(=O)Nc2ccccc2OCC)C1c1ccc([N+](=O)[O-])cc1 ?
Resp: > 100 µM

Req: Would you mind telling me what TGI value was observed for CNCc1cccc2c1OCCOCCOCCC(C)S(=O)(=O)c1ccc(cc1)-c1cnc(N)c(n1)C(=O)N2 (configuration not stated) ?
Resp: 2.59 µM

Req: Would you mind telling me what TGI value was observed for O=C1c2ccccc2C(=O)c2sc(Nc3cc(Cl)ccc3Cl)nc21 ?
Resp: 4.07 µM

Req: Would you mind telling me what TGI value was observed for c1ccc(Nc2nnc(CCCCCCCCc3nnc(Nc4ccccc4)o3)o2)cc1 ?
Resp: > 100 µM

Req: Would you mind telling me what TGI value was observed for CN(C)c1ccc(O[Si](Oc2ccc(N(C)C)cc2)(Oc2ccc(N(C)C)cc2)Oc2ccc(N(C)C)cc2)cc1 ?
Resp: > 100 µM
